Data provenance is the supplement of paper PMC10567573.

B1: ANKRD44 (parent)
chain: FHCIETLVTTGANVNETDDWGRTA

variants of: B1; experiment: protein stability index of a GFP-peptide fusion (GPS, HEK-293T) (PSI 1-6); higher = more stable; settings: c terminus: a fixed tail appended;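 note: lentivirally expressed fusions sorted by FACS into six bins by GFP to DsRed ratio, PSI derived from sequencing read proportions per bin multiplied by bin number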
Decision: protein stability index >= 2 yields MET, all other cases yield NOT MET.

Reference set, count: 5
variant_code=G11R class_assignment=MET
variant_code=E5P class_assignment=MET
variant_code=T17M class_assignment="NOT MET"
variant_code=T17L class_assignment="NOT MET"
variant_code=E16R class_assignment="NOT MET"

Item V8R with protein stability index of 2 or above?
MET

Also, H2Q please.
MET

Also, V14Y please.
NOT MET
